For each record, write down the corresponding protein stability index.
Test Protocol: protein stability index of a GFP-peptide fusion (yeast GPS) (PSI 1-4); higher = more stable; sorted into four equal gates, so the index is relative within each strain
Settings: pdr5∆

Provide only the value of recorded protein stability index for GNIKDLPENIILTSLMR [CSN9] 2.93

Tell me protein stability index reported for LVLPPVVTSSVAESFTD [SNF2] 2.02

Supply reported protein stability index belonging to this sequence: NLAIVELVRLLIIDEIH [BRR2] 2.38

Return the recorded protein stability index value; entry: KFENDELAESTTTKIID [LRP1] 2.47

Read the entry QLGPQTPAFNTAILQRQ [ECM29] and write its reported protein stability index. 1.49

Please report protein stability index for the following sequence: HHELIKVKHDSQPFIKF [SSN2] 2.71

Provide protein stability index value for the following sequence: QLYEDLCRYEDTLSKLV [MED4] 2.67

Determine from records and report protein stability index for SKNSPAEDDVIIPQDIL [YJR042W/NUP85] 2.96

Look up protein stability index of GIRVQDSVILASSKAVT [PRE1] and report it. 2.73

Given DAIWSLVFQLAKNFSAQ [SRB8] , respond with its protein stability index. 2.56

Indicate its recorded protein stability index; the sequence in question is EAAAAEEGEEEEVKEEV [RPS0B] 3.48

Return reported protein stability index. Input sequence: YNIDANVIDTQRKNGVT [ECM29] 3.14

For the sequence MLLITSGDSGVYTLACR [RPC11] , give its reported protein stability index. 2.45

State its protein stability index: PHTTLVNECIAQSHQRF [CDC53] 2.92

---

I'd be grateful if you could share measured protein stability index for these entries.
Test Protocol: protein stability index of a GFP-peptide fusion (yeast GPS) (PSI 1-4); higher = more stable; sorted into four equal gates, so the index is relative within each strain
Settings: pdr5∆
Write the number on its own, no unit after it.

Supply reported protein stability index belonging to this sequence: AGIVPVSANTPKSLNSN [SWI1] 3.04

Determine from records and report protein stability index for DKSTKTAEAPTLSFNFS [YOR098C/NUP1] 3.29

Hello, please tell me recorded protein stability index for this one: EDDNNNVEKPSSKPAFN [YLR335W/NUP2] 3.2

Supply recorded protein stability index for PQINILQPIKGESARRF [RPC40] here. 2.58

Tell me its protein stability index given IVWRFISENTFPNGFKN [RPC34] as the entry. 2.05

Return protein stability index (reported value) for this sequence: VLEERERGQKVKNVKNS [ARP9] 2.25

Give protein stability index for LRSDFYILANHYLSRVL [YJL039C/NUP192] 2.85

Respond only with protein stability index recorded for GHTLINNYKDLLAVAIA [RPP0] 1.61

Specify measured protein stability index for TIGAIFLNHAFDYMNRY [CDC53] . 2.1

Quickly give me recorded protein stability index for DLCSLKPYVDRFAFSVI [DIS3] 1.87

Specify measured protein stability index for VDIVNQWFLQYQNQFVE [YML103C/NUP188] . 2.1

Provide only the value of recorded protein stability index for EVLCSRIIEKSVRRSGA [RRP45] 3.21

Dear colleague, please send me the reported protein stability index for VSNIEGILDEIMFNHAR [RGR1] when you can. 2.53

Provide one value: measured protein stability index of LAEKVEKASRQQRKQKK [RPS24A] 3.33

---

Test Protocol: protein stability index of a GFP-peptide fusion (yeast GPS) (PSI 1-4); higher = more stable; sorted into four equal gates, so the index is relative within each strain
Settings: doa10∆
For each of the sequences below, state its protein stability index.
Please reply with the number alone, leaving off any unit.

Determine its reported protein stability index: VRRLEAQRNALNDKVRF [RPT6] 2.63

Look up and state reported protein stability index for AKPDNLANFSNEVAMNN [SWP82] 3.22

Please give the documented protein stability index of AVDLEHHDYRSYYGIVC [RRP6] 2.5

State its protein stability index for this sequence: MKRNCGQIITLFSSRRL [RMP1] 2.3

Give me measured protein stability index, please, for this sequence: EIQPRANIQLDFPELKP [FAS2] 3.13

Fill in reported protein stability index for this entry: ATAIGKGSVAAKTFLEK [PRE8] 2.13

Return protein stability index for the following sequence: ANNNINSASSAPTPAAP [SWI1] 2.99

Read the entry NQMKVAPIPKQLLQRIP [GAL11] and write its reported protein stability index. 2.28

Answer with the recorded protein stability index for the sequence listed here: LRDDTLPKAWISLAVEG [COR1] 2.55

Specify protein stability index for QHHVTDADKLSFNCENF [YML031W/NDC1] and stop. 2.45

Determine from records and report protein stability index for AQAQAQAQAQAQAQAQA [GAL11] 2.95

Tell us which protein stability index value is on record for SDLINKDLVKNNVSFNA [FAS1] 2.61

Please list protein stability index recorded for the sequence MNNQPQGTNSVPNSIGN [SNF5] 2.87

Provide measured protein stability index value, entry: THFLLNIYDQLRNKLIE [RRP6] 2.62

Provide only the value of recorded protein stability index for LLLITHHSWSQSDLEII [ARP9] 2.36

---

Exercise: for every item that follows, state its recorded protein stability index.
Test Protocol: protein stability index of a GFP-peptide fusion (yeast GPS) (PSI 1-4); higher = more stable; sorted into four equal gates, so the index is relative within each strain
Settings: san1∆

Look up and report measured protein stability index for this entry: NKQYELFMKSLIENCKK [SWI1] 2.77

Tell me its protein stability index given LQPPKTSSRGRDHKSYS [SMC4] as the entry. 3

Please list protein stability index recorded for the sequence IVNHEQDLPKINDKRAN [SRB4] 2.96

Output protein stability index of TRPLTLSHGSLEHVLLV [FAS1] 2.67

Note down protein stability index recorded for GSSSIIYYDSYIHLAYS [SSN2] 2.7

Could you please provide reported protein stability index for TPAPKISYKKGAASNRT [RPL36A] ? Thanks! 3.17

Determine from records and report protein stability index for KQNEQLHVEQLSGGQKT [SMC3] 2.19

For the sequence ELVRLLIIDEIHLLHDD [BRR2] , give its measured protein stability index value. 1.5

Give recorded protein stability index. TVKENESDSKLQCHISG [UBP6] 3.05

Please give the documented protein stability index of AVARLKSMNKSAINQYN [SNF2] 2.34

Fill in reported protein stability index for this entry: QFCGIKERNSLKKLKAM [BRR2] 2.25

Input AKAKRRHTTGTGRMRYL [RPL37A] , output reported protein stability index. 2.99

Input VDIVNQWFLQYQNQFVE [YML103C/NUP188] , output reported protein stability index. 1.81

Please look at this sequence and report its protein stability index: EIQPRANIQLDFPELKP [FAS2] 3.12

Retrieve protein stability index measured for AQDFKTDLRFQSSAIGA [HHT1] and print it. 1.24

Please indicate protein stability index recorded for SAVVGPNGSGKSNVIDS [SMC4] 3.06

Provide one value: measured protein stability index of NKRWKVDIGGKQHAVLM [RRP4] 3.18

Supply reported protein stability index belonging to this sequence: WRILKEDYAIVTKGGTV [PRP28] 3.26

Output measured protein stability index for this item: TSIARIGDYILKSPVLS [QCR7] 1.49

Given AIPNPEDVVAISSRTYG [RPS0B] , respond with its protein stability index. 2.99

Complete the entry with protein stability index for RFYELEESLTVLNCLRT [YJR042W/NUP85] 1.7

Return value of protein stability index for input KRQYVKQFLTKDLKFPL [RPL20A] , no commentary. 2.76

For the sequence GLSPKKVGEDIAKATKE [RPL12A] , report protein stability index. 3.13

Tell me its protein stability index given EQDILDLIAEQVVTDYN [SSN2] as the entry. 3.08

Consider the sequence KTRNPLTHSTPKNFGIG [RPL8A] and give its recorded protein stability index. 2.95

Identify measured protein stability index associated with KVSDPYVPTRNTFNYDV [RPN4] 1.8

Return protein stability index (reported value) for this sequence: TENEKFISYHDKYLCML [NUT1] 3.23

Assign protein stability index to the following record: DTGTLDTKSVVGLVMFS [RPN2] 2.91

Supply protein stability index value. Item: SVDDVLSALDHIGHSAL [DPB4] 3.27

Find the measured protein stability index of LCDNFNHFSLSYKDSGL [COR1] and report it. 2.73

---

Test Protocol: protein stability index of a GFP-peptide fusion (yeast GPS) (PSI 1-4); higher = more stable; sorted into four equal gates, so the index is relative within each strain
Settings: ubr1∆
Lab note: anything with protein stability index at or over 3 counts as MET; the rest go in NOT MET.

Does the reported protein stability index for KLSKILRTEYGWDSLAS [SNU114] fall at or above the 3 mark? MET

Hi team, for KIFQTTPEKDLFIGLFT [YCS4] , is the recorded protein stability index at or above 3? NOT MET

Is protein stability index at least 3? Consider DKLINDVTAIQTWSYLS [ECM29] NOT MET

Reported protein stability index at or above 3? NEVKEWAVTLDTSRPDL [DSN1] MET

Confirm if protein stability index reported for the sequence QITIEPGVDVEVVVASN [RPS20] is 3 or above. NOT MET

Would you say PANNHQLGLQTVIRGNS [SMX2] shows protein stability index at minimum 3? NOT MET

Given LVQKTVQESGNIDYQKG [GRR1] , state whether its protein stability index is at least 3. MET

# check: protein stability index of NELERNRKIYQFTLYDR [SMC3] is greater than or equal to 3 NOT MET

Could you tell me if the measured protein stability index of NIIASPLSAGFNYGKLP [SIN4] reaches 3 or more? NOT MET

API: above_or_equal(metric=protein stability index, cutoff=3) for item AVTHNLYYDEDINVESL [PUP2] NOT MET

Hi, just wondering whether QVGERIKQTFKNDLFVI [RPO21] shows protein stability index of 3 or higher. NOT MET

Quick check, protein stability index >= 3? SATFLRIVGSELIQKYL [RPT2] NOT MET

Is protein stability index for EIVRDILHTKESSNEAK [SIR4] at or above 3? NOT MET

Tell me whether protein stability index is at least 3 here: KSTTPYVSALKRINKFL [POP7] NOT MET

Quick check, protein stability index >= 3? RFYELEESLTVLNCLRT [YJR042W/NUP85] NOT MET

Evaluate ELKYQRSLRATAEERVG [RPL15A] : protein stability index at minimum 3? NOT MET

Is it the case that LCYMAPMTVKLVQLPKS [POP3] has protein stability index reaching or exceeding 3? NOT MET

Quick check: does NMEKEKDRIIDERTKEF [YIL149C/MLP2] have protein stability index greater than or equal to 3? MET

Does the sequence RRFKNGFQTGSAKATSA [RPL37B] have recorded protein stability index that is 3 or more? MET

Does SLRTPIAPKITPKVVRS [SEC65] have a reported protein stability index of at least 3? MET

Say whether NLSQENDNEGKHISASI [YAR002W/NUP60] shows protein stability index of 3 or more. MET

Could you please find out whether YSLIRETNGYDPFSIYG [SNF5] has protein stability index that meets 3 or exceeds it? NOT MET

Hi, just wondering whether FGIYILTQGINGKEVPL [MED1] shows protein stability index of 3 or higher. NOT MET

Quick check: does TSSAPAQNQGMFGAKPA [YGL172W/NUP49] have protein stability index greater than or equal to 3? NOT MET

Does the reported protein stability index for GGLGLNLQTADTVIIFD [SNF2] fall at or above the 3 mark? MET

Can TSLQGTYEAIEITDAYC [YMR129W/POM152] be said to have protein stability index at or above 3? NOT MET
